Values were extracted from ChEMBL document CHEMBL3232950.

Tested System: UniProtKB P81908
Sequence (P81908 whole entry): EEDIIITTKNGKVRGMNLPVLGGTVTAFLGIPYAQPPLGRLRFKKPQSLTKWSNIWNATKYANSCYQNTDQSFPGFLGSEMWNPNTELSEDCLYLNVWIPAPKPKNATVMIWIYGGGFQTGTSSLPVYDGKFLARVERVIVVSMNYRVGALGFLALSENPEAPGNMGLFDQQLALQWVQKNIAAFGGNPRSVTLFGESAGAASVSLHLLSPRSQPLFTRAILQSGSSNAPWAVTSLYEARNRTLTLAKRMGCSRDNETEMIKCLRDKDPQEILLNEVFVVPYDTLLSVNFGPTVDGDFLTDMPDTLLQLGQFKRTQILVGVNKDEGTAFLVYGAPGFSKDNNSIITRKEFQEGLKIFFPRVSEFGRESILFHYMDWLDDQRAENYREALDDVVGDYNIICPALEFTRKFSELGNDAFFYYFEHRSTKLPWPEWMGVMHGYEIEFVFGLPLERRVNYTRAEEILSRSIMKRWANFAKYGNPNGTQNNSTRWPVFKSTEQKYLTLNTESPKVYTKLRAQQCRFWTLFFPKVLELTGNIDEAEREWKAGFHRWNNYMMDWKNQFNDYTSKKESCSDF
Observable: IC50

[[record]]
molecular_string = "Cn1c(=O)c(C(=O)NCC2CCN(Cc3ccccc3)CC2)c(N)c2ccccc21"
observable = "IC50"
value_measured = "1.14 µM"

[[record]]
molecular_string = "COc1cc2c(O)c(C(=O)NCC3CCN(Cc4ccccc4)CC3)c(=O)n(Cc3ccccc3)c2cc1OC"
observable = "IC50"
value_measured = "> 60 µM"

[[record]]
molecular_string = "Cn1c(=O)c(C(=O)NCC2CCN(Cc3ccccc3)CC2)c(O)c2cc(O)c(O)cc21"
observable = "IC50"
value_measured = "> 10 µM"

[[record]]
molecular_string = "O=C(NC1CCN(Cc2ccccc2)CC1)c1c(O)c2ccccc2[nH]c1=O"
observable = "IC50"
value_measured = "> 10 µM"

[[record]]
molecular_string = "O=C(NCC1CCN(Cc2ccccc2)CC1)c1c(O)c2ccccc2n(Cc2cc(O)c(O)c(O)c2)c1=O"
observable = "IC50"
value_measured = "> 10 µM"

[[record]]
molecular_string = "Cn1c(=O)c(C(=O)NCC2CCN(Cc3ccccc3)CC2)c(O)c2ccccc21"
observable = "IC50"
value_measured = "4.26 µM"

[[record]]
molecular_string = "O=C(NCC1CCN(Cc2ccccc2)CC1)c1c(O)c2ccccc2n(Cc2ccccc2)c1=O"
observable = "IC50"
value_measured = "> 10 µM"

[[record]]
molecular_string = "Cc1c(C(=O)NCC2CCN(Cc3ccccc3)CC2)c(=O)[nH]c2ccccc12"
observable = "IC50"
value_measured = "> 10 µM"

[[record]]
molecular_string = "Cc1c(C(=O)NC2CCN(Cc3ccccc3)CC2)c(=O)[nH]c2ccccc12"
observable = "IC50"
value_measured = "> 10 µM"

